// values below are reported koff
Biological target: T1, recombinant human IL-12 (rhIL-12) (human, UniProt P29459 23-219; P29460 23-328)
T1 construct: disulfide-linked p35/p40 heterodimer (p70); also called rec. human IL12; IL-12 p70
T1 sequence (looked up) 1: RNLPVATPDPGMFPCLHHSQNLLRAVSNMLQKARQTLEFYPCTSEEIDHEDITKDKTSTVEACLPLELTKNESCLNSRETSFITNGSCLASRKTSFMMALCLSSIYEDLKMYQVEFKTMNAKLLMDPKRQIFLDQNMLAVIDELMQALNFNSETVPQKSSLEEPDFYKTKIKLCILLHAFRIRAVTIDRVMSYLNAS
T1 sequence (looked up) 2: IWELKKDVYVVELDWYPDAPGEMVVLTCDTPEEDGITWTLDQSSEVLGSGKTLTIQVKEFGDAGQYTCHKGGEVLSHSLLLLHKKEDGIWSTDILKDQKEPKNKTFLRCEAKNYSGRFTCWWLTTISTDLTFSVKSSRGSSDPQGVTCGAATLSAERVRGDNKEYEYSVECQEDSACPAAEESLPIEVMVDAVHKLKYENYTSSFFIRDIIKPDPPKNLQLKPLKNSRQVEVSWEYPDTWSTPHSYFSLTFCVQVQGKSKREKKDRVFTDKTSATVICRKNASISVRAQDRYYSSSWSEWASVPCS
Assay: BIAcore (SPR) off-rate on IL-12 chip

[
  {
    "binder": "99-H7 (scFv, V domains shown) VH: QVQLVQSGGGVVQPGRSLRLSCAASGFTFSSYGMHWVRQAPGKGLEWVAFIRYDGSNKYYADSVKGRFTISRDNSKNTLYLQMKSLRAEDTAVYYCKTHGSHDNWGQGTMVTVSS VL: SYVLTQPPSVSGTPGQRVTISCSGGRSNIGSNTVKWYQQLPGTAPKLLIYGNDQRPSGVPDRFSGSKSGTSASLAITGVQAEDEADYYCQSYPDGTPASRVFGTGTKVTVLG",
    "koff": "0.0033 s⁻¹"
  },
  {
    "binder": "Y19 (scFv, V domains shown) VH: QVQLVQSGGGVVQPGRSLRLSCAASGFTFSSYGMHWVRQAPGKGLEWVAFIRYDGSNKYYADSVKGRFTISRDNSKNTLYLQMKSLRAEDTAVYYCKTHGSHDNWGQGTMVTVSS VL: SYVLTQPPSVSGTPGQRVTISCSGGRSNIGSNTVKWYQQLPGTAPKLLIYGNDQRPSGVPDRFSGSKSGTSASLAITGVQAEDEADYYCQSYDRGHHPAMSFGTGTKVTVLG",
    "koff": "0.000226 s⁻¹"
  },
  {
    "binder": "Y61-L50Y-H31E-L94Y IgG (antibody, V domains shown) VH: QVQLVQSGGGVVQPGRSLRLSCAASGFTFSEYGMHWVRQAPGKGLEWVAFIRYDGSNKYYADSVKGRFTISRDNSKNTLYLQMKSLRAEDTAVYYCKTHGSHDNWGQGTMVTVSS VL: SYVLTQPPSVSGTPGQRVTISCSGGRSNIGSNTVKWYQQLPGTAPKLLIYYNDQRPSGVPDRFSGSKSGTSASLAITGVQAEDEADYYCQSYDRYTHPALLFGTGTKVTVLG",
    "koff": "4.64e-05 s⁻¹"
  }
]
